Recorded growth, one value per entry.
System: MDA-MB-231 breast
Test: NCI-60 one-dose screen, 48 h (100 = growth as untreated, 0 = no growth, -100 = all killed)
Settings: 10 µM unless noted
This is part of a sample that, as a whole, favours compounds with a hit. Of some 83,000 tested, about 20% had one in any assay.
Write the answer as a number in %, unit excluded.

These solved cases illustrate the format of a correct answer.
CC(C)(C)c1cc(/C=N/NC(=O)c2ccccc2NC(=O)c2cccs2)c(O)c(C(C)(C)C)c1	44.3
COc1ccc(N2CCN(c3ccc(NC4=C(Cl)C(=O)c5ncccc5C4=O)cc3)CC2)cc1	56.7

Exercise: // query growth value for entry O=C(c1ccccc1)N1N=C(c2ccc(-n3ccc(C(F)(F)F)n3)c(F)c2)CC1c1ccc[nH]1 (centres undefined)
Key: 99.5

Exercise: // query growth value for entry CN1C(N2CCN(S(=O)(=O)c3ccccc3)CC2)=NS(=O)(=O)c2ccccc21
Key: 104

Exercise: // query growth value for entry O=C(CCN1CCCC1)Nc1ccc2c(NCc3ccccc3)c3ccccc3nc2c1
Key: -14.9

* * *

System: NCI-H226 lung
Test: NCI-60 one-dose screen, 48 h (100 = growth as untreated, 0 = no growth, -100 = all killed)
Conditions: 10 µM unless noted
Compounds without any hit were thinned out: in the full panel of roughly 83,000, 20% have a hit.
Recorded growth, one value per entry.
Write the answer as a number in %, unit excluded.

COC(=O)C1=C(C(=O)ON)C2C=CC1(C(Cc1ccccc1)Nc1ccccc1)O2 (configuration not stated)	107

Exercise: // query growth value for entry COC(=O)C(CC=O)C(=O)C(=O)Nc1cccc(C(F)(F)F)c1 (configuration not stated)
Key: 98.7

Exercise: // query growth value for entry COc1ccc(C(=O)c2cc(C)c(OC)c(C)c2)c(OC)c1NC(C)=O
Key: 17.4

Exercise: // query growth value for entry CCNC(=O)Oc1ccc(/C(=C(\C)c2ccccc2)c2ccc(OCCCN(C)C)cc2)cc1
Key: 99.2

Exercise: // query growth value for entry N#Cc1c(NC(=O)NCc2ccccc2)sc2c1CCCC2
Key: 29.5

Exercise: // query growth value for entry Cc1nc2sccn2c1-c1cn2ccsc2n1
Key: 84.3

Exercise: // query growth value for entry COc1ccc(NC(=O)c2cc(NCc3cc(O)ccc3O)ccc2O)cc1
Key: 97

* * *

Tested on: IGROV1 ovarian
Assay: NCI-60 one-dose screen, 48 h (100 = growth as untreated, 0 = no growth, -100 = all killed)
Settings: 10 µM unless noted
About 83,000 compounds went through this panel and 20% of them were active in at least one assay; those are over-represented in the sample as a whole.
Quantity Name: growth (%)
Write the answer as a number in %, unit excluded.

These solved cases illustrate the format of a correct answer.
N#C/C(=C\c1ccc(C(F)(F)F)cc1)c1cc2ccccc2[nH]1	94.5
Cc1cc2cc3ccc(N(C)C)cc3nc2cc1N	-1.84
C=C1C(=O)O[C@H]2[C@H]1CC/C(CNC(=O)CCc1ccc(OC)cc1)=C\CC[C@@]1(C)O[C@@H]21	61.7

// moving on: another record for growth
Exercise: // query growth value for entry COCCCN1CC(O)=C(c2nc(-c3ccc(C)cc3)cs2)C1=N
Key: 54.4

* * *

Recorded growth, one value per entry.
System: HCC-2998 colon
Assay: NCI-60 one-dose screen, 48 h (100 = growth as untreated, 0 = no growth, -100 = all killed)
Details: 10 µM unless noted
About 83,000 compounds went through this panel and 20% of them were active in at least one assay; those are over-represented in the sample as a whole.
Write the answer as a number in %, unit excluded.

CCCCNC(=O)Oc1ccc(/C(=C(\C)c2ccccc2)c2ccc(OCCN3CCCCC3)cc2)cc1	79

Exercise: API: value(readout= growth, system= HCC-2998 colon, query= NS(=O)(=O)c1ccc(CCN2C(=O)c3cc(Cl)c(Cl)cc3C2=O)cc1 )
Key: 90.2

Exercise: API: value(readout= growth, system= HCC-2998 colon, query= O=[N+]([O-])c1ccc(N=Nc2cc(S(=O)(=O)O)c3cccc(S(=O)(=O)O)c3c2O)cc1 )
Key: 112

Exercise: API: value(readout= growth, system= HCC-2998 colon, query= CC1(C)CC(=O)C2=C(C1)N(c1ccc(F)cc1F)C(N)=C(C#N)C2c1cc(Br)ccc1F (centres undefined) )
Key: 107

Data origin, for the record: PubChem BioAssay (NCI)
